# measured target: Orexin/Hypocretin receptor type 1 (Homo sapiens) (UniProt O43613)
# Sequence (O43613 whole entry): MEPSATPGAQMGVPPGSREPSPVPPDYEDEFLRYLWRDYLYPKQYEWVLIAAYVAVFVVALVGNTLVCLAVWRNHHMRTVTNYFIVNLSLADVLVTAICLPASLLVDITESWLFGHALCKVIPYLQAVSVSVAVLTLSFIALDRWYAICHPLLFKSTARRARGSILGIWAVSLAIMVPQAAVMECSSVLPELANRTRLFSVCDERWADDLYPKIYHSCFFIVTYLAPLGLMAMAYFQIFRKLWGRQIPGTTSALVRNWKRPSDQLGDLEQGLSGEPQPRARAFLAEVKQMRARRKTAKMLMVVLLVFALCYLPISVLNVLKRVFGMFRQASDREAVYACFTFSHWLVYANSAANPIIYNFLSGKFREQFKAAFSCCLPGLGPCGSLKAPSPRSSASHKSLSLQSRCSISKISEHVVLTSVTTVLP
# assay protocol: Binding affinity towards orexin receptor type 1.
measured parameter: pKb

[[record]]
smiles_record = "CN(C)c1ccc(NC(=O)Nc2ccnc3ccccc23)cc1"
value_reported = 7.8

[[record]]
smiles_record = "O=C(Nc1ccc2[nH]ccc2c1)Nc1ccnc2ccccc12"
value_reported = 6.2

[[record]]
smiles_record = "Cn1ccc2cc(NC(=O)Nc3ccnc4ccccc34)ccc21"
value_reported = 7.5

[[record]]
smiles_record = "Cc1nc2ccc(NC(=O)Nc3ccnc4ccccc34)cc2o1"
value_reported = 7.7


----------
# measured target: 5-hydroxytryptamine receptor 2C (Homo sapiens)
# Sequence (P28335 whole entry): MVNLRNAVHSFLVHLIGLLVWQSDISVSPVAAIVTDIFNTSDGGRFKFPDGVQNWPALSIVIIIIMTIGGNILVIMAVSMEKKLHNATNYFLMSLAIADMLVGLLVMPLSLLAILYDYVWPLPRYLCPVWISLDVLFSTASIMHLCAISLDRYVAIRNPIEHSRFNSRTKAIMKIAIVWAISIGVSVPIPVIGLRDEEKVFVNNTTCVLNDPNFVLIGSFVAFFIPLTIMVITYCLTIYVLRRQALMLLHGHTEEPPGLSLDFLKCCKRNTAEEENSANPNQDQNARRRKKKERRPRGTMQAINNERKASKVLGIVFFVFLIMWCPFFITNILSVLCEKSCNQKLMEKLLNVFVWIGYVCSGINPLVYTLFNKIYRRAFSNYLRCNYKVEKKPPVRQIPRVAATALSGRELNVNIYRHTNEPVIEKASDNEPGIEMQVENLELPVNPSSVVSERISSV
pKi: −log10 of the molar value.
measured parameter: pKi

Sample records with pKi:
[[record]]
smiles_record = "Cc1cc2cc(NC(=O)Nc3ccnc4ccccc34)ccc2n1C"
measured_parameter = "pKi"
value_reported = 7.10

[[record]]
smiles_record = "CN1CCc2cc(NC(=O)Nc3ccnc4ccccc34)ccc21"
measured_parameter = "pKi"
value_reported = 7.30


I: CN(C)c1ccc(NC(=O)Nc2ccnc3ccccc23)cc1
II: CCN(CC)c1ccc(NC(=O)Nc2ccnc3ccccc23)cc1
**Q:** Consider entries I and II . Which has the numerically lower pKi? Field: selected label. Fill in the label of the entry you choose.
**A:** I
(I: 6.90, II: 7.50)

The origin of these recorded values is ChEMBL document CHEMBL1134731.
